For each record, write down the corresponding EC50.
- SYSTEM TESTED: T1, rhesus c-Met on 4MBr-5 cells (rhesus, UniProt F7H1K4 25-1381, Natural c-Met is cleaved at the furin site (KRKKR/S) into disulphide-linked alpha and beta subunits; given here as one mature polypeptide.)
- T1 construct: also called rhesus c-Met antigen
- T1 sequence (F7H1K4 entry or part of it limits assumed): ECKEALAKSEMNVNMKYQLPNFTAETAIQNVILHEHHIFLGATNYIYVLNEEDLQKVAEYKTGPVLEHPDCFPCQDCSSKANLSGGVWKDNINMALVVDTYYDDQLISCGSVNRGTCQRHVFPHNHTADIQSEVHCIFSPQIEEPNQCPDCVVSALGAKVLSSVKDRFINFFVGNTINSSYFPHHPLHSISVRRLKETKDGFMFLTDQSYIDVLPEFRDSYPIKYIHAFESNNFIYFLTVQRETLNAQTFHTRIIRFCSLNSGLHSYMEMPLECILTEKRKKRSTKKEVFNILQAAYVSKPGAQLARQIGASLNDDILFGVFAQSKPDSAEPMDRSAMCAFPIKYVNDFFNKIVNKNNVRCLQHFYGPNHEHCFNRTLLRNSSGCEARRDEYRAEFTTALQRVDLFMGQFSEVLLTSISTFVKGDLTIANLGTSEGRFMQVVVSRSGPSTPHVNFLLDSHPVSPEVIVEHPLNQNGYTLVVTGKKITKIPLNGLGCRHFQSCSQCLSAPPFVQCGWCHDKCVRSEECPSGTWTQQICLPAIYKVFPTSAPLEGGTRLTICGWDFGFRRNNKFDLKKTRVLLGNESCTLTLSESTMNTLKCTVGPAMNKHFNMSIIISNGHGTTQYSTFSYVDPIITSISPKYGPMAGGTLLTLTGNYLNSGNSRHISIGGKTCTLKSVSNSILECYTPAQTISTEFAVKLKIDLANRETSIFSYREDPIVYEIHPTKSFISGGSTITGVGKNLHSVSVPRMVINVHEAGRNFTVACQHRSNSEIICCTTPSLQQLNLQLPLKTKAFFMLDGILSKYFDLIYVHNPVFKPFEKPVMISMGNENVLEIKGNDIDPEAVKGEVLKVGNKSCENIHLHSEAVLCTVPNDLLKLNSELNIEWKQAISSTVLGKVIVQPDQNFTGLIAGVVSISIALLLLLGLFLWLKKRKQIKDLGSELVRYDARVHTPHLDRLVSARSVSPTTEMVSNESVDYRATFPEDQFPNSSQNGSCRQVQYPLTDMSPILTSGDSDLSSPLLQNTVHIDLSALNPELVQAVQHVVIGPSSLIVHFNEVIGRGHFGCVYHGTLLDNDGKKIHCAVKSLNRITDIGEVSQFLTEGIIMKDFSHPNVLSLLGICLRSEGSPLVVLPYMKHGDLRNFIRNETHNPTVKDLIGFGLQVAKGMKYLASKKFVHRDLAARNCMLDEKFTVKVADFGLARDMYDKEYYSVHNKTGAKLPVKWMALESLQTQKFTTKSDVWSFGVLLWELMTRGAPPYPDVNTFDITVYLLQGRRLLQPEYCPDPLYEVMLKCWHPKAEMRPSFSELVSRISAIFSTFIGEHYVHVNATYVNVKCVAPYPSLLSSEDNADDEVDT
- ASSAY SUMMARY: flow cytometry, 4MBr-5 cells, without HGF
Provide only the numeric value, understood in µg/mL.

Provide EC50 value for the following binder: mAb3e (antibody, human IgG1, kappa, V domains shown, Humanized IgG1 kappa, HC-41C, from wt/41C-chi-mAb3; also called humanized HC-41C antibody mAb3e) VH: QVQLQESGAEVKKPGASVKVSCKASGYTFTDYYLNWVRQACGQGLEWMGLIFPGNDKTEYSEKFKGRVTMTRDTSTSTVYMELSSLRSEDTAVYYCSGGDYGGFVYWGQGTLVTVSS VL: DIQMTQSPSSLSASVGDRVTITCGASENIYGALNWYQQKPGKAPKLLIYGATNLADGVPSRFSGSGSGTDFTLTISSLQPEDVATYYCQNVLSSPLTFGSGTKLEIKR
0.03

Provide EC50 value for the following binder: mAb3a (antibody, human IgG1, kappa, V domains shown, Humanized IgG1 kappa, HC-41C, from wt/41C-chi-mAb3; also called humanized HC-41C antibody mAb3a) VH: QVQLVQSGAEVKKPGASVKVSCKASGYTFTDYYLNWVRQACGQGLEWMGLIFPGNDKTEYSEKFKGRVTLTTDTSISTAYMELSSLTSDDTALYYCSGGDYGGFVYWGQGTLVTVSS VL: DIQLTQSPSSLSASVGDRVTITCGASENIYGALNWYQQKPGKAPKLLIYGATNLADGVPSRFSGSGSGTDFTLTISSLQPEDFATYYCQNVLSSPLTFGPGTKVDIKR
0.04

Provide EC50 value for the following binder: mAb1a (antibody, human IgG1, kappa, V domains shown, Humanized IgG1 kappa, HC-41C, from wt/41C-chi-mAb1; also called humanized HC-41C antibody mAb1a; mAbla) VH: QVQLVQSGAEVKKPGASVKVSCKASGYIFTDYFMNWVRQACGQGLEWMGRVNPKNGDITYNQKFRGRVSLTKDTSINTAYMELSGLTSDDTAIYYCAYDGYYDGMDFWGQGTSVTVSS VL: ELVMTQSPSSLSASVGDRVTITCRANSSVSSNFLHWYQQKPGKAPKLLISSTSNLAFGVPSRFSGTGSGTDFSLTISSLQPEDFAIYYCHQYSGHPFTFGQGTKLEIKR
0.07

Provide EC50 value for the following binder: mAb3d (antibody, human IgG1, kappa, V domains shown, Humanized IgG1 kappa, HC-41C, from wt/41C-chi-mAb3; also called humanized HC-41C antibody mAb3d) VH: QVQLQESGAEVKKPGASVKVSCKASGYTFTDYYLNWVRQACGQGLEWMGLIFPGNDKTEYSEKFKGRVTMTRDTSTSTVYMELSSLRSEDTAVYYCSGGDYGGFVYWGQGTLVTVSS VL: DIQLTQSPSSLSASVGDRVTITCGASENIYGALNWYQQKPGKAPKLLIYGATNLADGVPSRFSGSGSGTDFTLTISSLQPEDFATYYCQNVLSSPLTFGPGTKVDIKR
0.03

Provide EC50 value for the following binder: mAb2b (antibody, human IgG1, kappa, V domains shown, Humanized IgG1 kappa, HC-41C, from wt/41C-chi-mAb2; also called humanized HC-41C antibody mAb2b) VH: QVQLVQSGAEVKKPGSSVKVSCKASGYVFPDYEMHWVRQACGQGLEWMGAFDPETGDTTYNQNFKGRVTITADKSTSTAYMELSSLRSEDTAVYYCARDYKYLYYYAMDNWGQGTTVTVSS VL: DIQMTQSPSSLSASVGDRVTITCTASSSITSSYLHWYQQKPGKAPKLLIYSTTNLASGVPSRFSGSGSGTDFTLTISSLQPEDFATYYCHQYRRSPLTFGGGTKLEIKR
0.09

Provide EC50 value for the following binder: mAb3b (antibody, human IgG1, kappa, V domains shown, Humanized IgG1 kappa, HC-41C, from wt/41C-chi-mAb3; also called humanized HC-41C antibody mAb3b) VH: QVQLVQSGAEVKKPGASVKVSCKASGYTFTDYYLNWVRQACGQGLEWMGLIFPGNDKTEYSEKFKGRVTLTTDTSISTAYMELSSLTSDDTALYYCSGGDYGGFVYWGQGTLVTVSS VL: DIQMTQSPSSLSASVGDRVTISCGASENIYGALNWYQQQPGKAPKVLIFGATNLADGVPSRFSGSGSGTDFTLTISSLQPEDFATYYCQNVLSSPLTFGQGTKLEIKR
0.02

Provide EC50 value for the following binder: mAb2a (antibody, human IgG1, kappa, V domains shown, Humanized IgG1 kappa, HC-41C, from wt/41C-chi-mAb2; also called humanized HC-41C antibody mAb2a) VH: QVQLVQSGAELRKPGSSVKVSCRASGYVFPDYEMHWVRQACGQGLEWMGAFDPETGDTTYNQNFKGRVTIAADKSTSTAYMELRSLRSEDTAIYYCARDYKYLYYYAMDNWGQGTMVTVSS VL: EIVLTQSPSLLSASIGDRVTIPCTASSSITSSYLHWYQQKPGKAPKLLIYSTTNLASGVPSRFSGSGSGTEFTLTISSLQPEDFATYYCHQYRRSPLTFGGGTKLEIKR
0.06

Provide EC50 value for the following binder: mAb3c (antibody, human IgG1, kappa, V domains shown, Humanized IgG1 kappa, HC-41C, from wt/41C-chi-mAb3; also called humanized HC-41C antibody mAb3c) VH: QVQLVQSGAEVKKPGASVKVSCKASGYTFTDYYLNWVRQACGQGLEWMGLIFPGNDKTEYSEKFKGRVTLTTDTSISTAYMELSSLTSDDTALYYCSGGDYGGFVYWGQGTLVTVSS VL: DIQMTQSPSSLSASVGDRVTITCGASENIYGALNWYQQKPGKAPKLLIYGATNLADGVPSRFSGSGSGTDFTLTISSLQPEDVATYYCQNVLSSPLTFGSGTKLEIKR
0.02

Provide EC50 value for the following binder: mAb2c (antibody, human IgG1, kappa, V domains shown, Humanized IgG1 kappa, HC-41C, from wt/41C-chi-mAb2; also called humanized HC-41C antibody mAb2c) VH: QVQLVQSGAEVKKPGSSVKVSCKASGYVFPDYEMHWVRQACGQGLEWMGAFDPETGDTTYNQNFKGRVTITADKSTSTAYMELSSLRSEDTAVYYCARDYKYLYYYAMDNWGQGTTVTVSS VL: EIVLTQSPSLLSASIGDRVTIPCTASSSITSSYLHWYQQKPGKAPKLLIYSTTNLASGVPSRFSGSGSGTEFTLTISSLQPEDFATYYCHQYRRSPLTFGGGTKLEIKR
0.07
